Data credit: PubChem BioAssay AID1851

Target: Cytochrome P450 2C19 (Homo sapiens)
Test: Cytochrome panel assay with activity outcomes; on activity, negative = inhibition: on the % scale 0 is the no-effect control and ±100 the full control effect
Settings: recombinant CYP, pro-luciferin dealkylation, luminescence, p450-cyp2c19; series mostly up to 57.1 µM
Description: The P450 gene superfamily is involved in the metabolism and clearance of xenobiotics. This assay used various human CYP P450 isozymes to measure the dealkylation of various pro-luciferin substrates to luciferin. The luciferin is then measured by luminescence after the addition of a luciferase detection reagent. […] Inhibitors and some substrates limit the production of luciferin, and decrease measured luminescence. […] 8, Detection, 1 sec, ViewLux luminescent read […]
Out of some 16,000 compounds screened, about 5,800 (36%) were called active. Roughly 23% stayed inconclusive and do not appear here. Some of the results follow.
Task for the reader: assign each of the following molecules its reported activity, negative = inhibition.

Query: What measured activity, negative = inhibition goes with `COc1c(NC(C)=O)c2ccccc2c2ccccc12` ?
Response: 4.06% [at 11.4 µM] (inactive)

Query: What measured activity, negative = inhibition goes with `CC(C)CN(CC#N)CC(C)C` ?
Response: 2.34% [at 11.4 µM] (inactive)

Query: What measured activity, negative = inhibition goes with `N#C/C(=C\Nc1ccccn1)C(=O)C1CC1` ?
Response: -23.3% [at 11.4 µM] (inactive)

Query: What measured activity, negative = inhibition goes with `C=CC[C@@H]1C=C[C@@H](O/N=C(/C)CCC(=O)OC[C@@H]2O[C@H](C#Cc3ccccc3)C=C[C@@H]2Oc2ccc(C)cc2)[C@@H](CO)O1` ?
Response: -42.3% [at 11.4 µM] (inactive)

Query: What measured activity, negative = inhibition goes with `COc1ccc(Br)c2c1C[C@H](C(=O)O)CC2` ?
Response: 39.7% [at 11.4 µM] (inactive)

###

Target: Cytochrome P450 2C19 (Homo sapiens)
Experiment: Cytochrome panel assay with activity outcomes
Details: recombinant CYP, pro-luciferin dealkylation, luminescence, p450-cyp2c19; series mostly up to 57.1 µM
Among all 16,000 compounds or so, about 5,800 (36%) were called active. Roughly 23% stayed inconclusive and do not appear here. Calls come from the whole dose curve; as a rule, active = well fitted curve in the direction sought with a large enough effect; inconclusive = small, poorly fitted or top-dose-only effect, or effect the other way; inactive = no such curve, though single readings can be large or run the other way. Some of the results follow.
Permitted responses: 1.0 = active, 0.0 = inactive

Query: Identify the outcome logged in this assay for the compound shown: C=C(C)C1Cc2nc(N)nc(C)c2C1 (configuration not stated)
Response: 0.0

Query: Identify the outcome logged in this assay for the compound shown: `Nc1ccc(Nc2ccccc2)cc1`
Response: 1.0

Query: Identify the outcome logged in this assay for the compound shown: `CN(Cc1cccc2ccccc12)Cc1cccc2ccccc12`
Response: 1.0

Query: Identify the outcome logged in this assay for the compound shown: `CCNC(=O)COC(=O)c1cc(-c2ccc(OC)cc2)nc2ccccc12`
Response: 1.0

Query: Identify the outcome logged in this assay for the compound shown: `CS/C(N)=N/N=C/c1ccc([N+](=O)[O-])cc1`
Response: 1.0

Query: Identify the outcome logged in this assay for the compound shown: `O=C1/C(=C\c2ccccn2)SC(=S)N1Nc1ncc(C(F)(F)F)cc1Cl`
Response: 1.0

Query: Identify the outcome logged in this assay for the compound shown: `CCNC(=O)COC(=O)c1cc(=O)[nH]c2ccccc12`
Response: 0.0

Query: Identify the outcome logged in this assay for the compound shown: `CN(C)Cc1ccccc1-c1ccc2ncnc(NCc3ccccc3)c2c1`
Response: 0.0

Query: Identify the outcome logged in this assay for the compound shown: COCCCNC(=O)c1ccc2c(=O)n(CC3CCCO3)c(=S)[nH]c2c1 (configuration not stated)
Response: 0.0

Query: Identify the outcome logged in this assay for the compound shown: `COc1ccc(S(=O)(=O)Nc2ccc(F)cc2)c(C)c1C`
Response: 1.0

Query: Identify the outcome logged in this assay for the compound shown: `O=C(C[n+]1cccc(NC(=O)c2ccccc2)c1)c1ccc(NC(=O)c2ccccc2)cc1`
Response: 1.0

Query: Identify the outcome logged in this assay for the compound shown: `O=C(c1ccc2c(=O)n(Cc3ccco3)c(=S)[nH]c2c1)N1CCN(c2ccccc2)CC1`
Response: 1.0

Query: Identify the outcome logged in this assay for the compound shown: `Clc1ccc2c(c1)C=Nc1c(NCc3ccccc3)ncnc1O2`
Response: 0.0

Query: Identify the outcome logged in this assay for the compound shown: COc1ccc(S(=O)(=O)N2CC3C4C=CC(C4)C3C2)cc1 (configuration not stated)
Response: 1.0

Query: Identify the outcome logged in this assay for the compound shown: Cn1c(SC2CCCCC2=O)nnc1-c1ccncc1 (configuration not stated)
Response: 1.0

Query: Identify the outcome logged in this assay for the compound shown: `COc1ccc(NC(=S)Nc2ccccc2)cc1`
Response: 1.0

Query: Identify the outcome logged in this assay for the compound shown: `COc1ccccc1-c1ccc2ncnc(Nc3ccccc3)c2c1`
Response: 1.0

Query: Identify the outcome logged in this assay for the compound shown: c1coc(CN2CCN(C(c3cccs3)c3nnnn3C3CCCC3)CC2)c1 (configuration not stated)
Response: 1.0

Query: Identify the outcome logged in this assay for the compound shown: CCOc1cc(NC(=S)NCC2CCCO2)c(OCC)cc1NC(=O)c1cccc(C)c1 (configuration not stated)
Response: 1.0

Query: Identify the outcome logged in this assay for the compound shown: `O=C(CCNc1cccc(Cl)c1)c1cccs1`
Response: 1.0

Query: Identify the outcome logged in this assay for the compound shown: `COc1ccc(C(=O)c2ccc(OC)c(OC)c2)cc1OC`
Response: 1.0

Query: Identify the outcome logged in this assay for the compound shown: `COc1ccccc1-c1ccc2ncnc(NCc3ccccc3)c2c1`
Response: 1.0

Query: Identify the outcome logged in this assay for the compound shown: `Cc1cccc(Cn2cnc3c(NS(C)(=O)=O)c(C)c(C)cc32)c1`
Response: 1.0

Query: Identify the outcome logged in this assay for the compound shown: `Fc1ccc2nc(Nc3nc4c(s3)CCCC4)sc2c1`
Response: 1.0

Query: Identify the outcome logged in this assay for the compound shown: `COc1ccc(NC(=O)c2ccc3c(=O)n(Cc4ccco4)c(=S)[nH]c3c2)c(OC)c1`
Response: 1.0

Query: Identify the outcome logged in this assay for the compound shown: `Clc1cccc(N/N=C/c2ccc(N3CCOCC3)cc2)c1`
Response: 1.0

Query: Identify the outcome logged in this assay for the compound shown: `COc1ccc(NC(=O)N2CCC3(CC2)CCN(C(=O)c2cnccn2)CC3)cc1`
Response: 1.0

Query: Identify the outcome logged in this assay for the compound shown: `COc1ccc(NC(=O)N2CCCC3(CCN(C(=O)c4cnccn4)CC3)C2)cc1`
Response: 0.0

Query: Identify the outcome logged in this assay for the compound shown: COc1ccc(C2CC(=O)CC(=O)C2n2cncn2)cc1 (configuration not stated)
Response: 0.0

Query: Identify the outcome logged in this assay for the compound shown: `O=C(Nc1ccccc1)N1CCC2(CC1)CCN(S(=O)(=O)c1ccccc1)CC2`
Response: 1.0

Query: Identify the outcome logged in this assay for the compound shown: `O=c1ccc(NS(=O)(=O)c2ccc(Cl)cc2)cn1Cc1ccc(Cl)c(Cl)c1`
Response: 1.0

Query: Identify the outcome logged in this assay for the compound shown: `Cc1ccsc1/C=N/Nc1nc(Cl)c(Cl)cc1Cl`
Response: 1.0
